Would you kindly list apparent Kd (screen) for each of these binders?
- test system: T1, TNFR1 (Homo sapiens, UniProt P19438)
- T1 chain: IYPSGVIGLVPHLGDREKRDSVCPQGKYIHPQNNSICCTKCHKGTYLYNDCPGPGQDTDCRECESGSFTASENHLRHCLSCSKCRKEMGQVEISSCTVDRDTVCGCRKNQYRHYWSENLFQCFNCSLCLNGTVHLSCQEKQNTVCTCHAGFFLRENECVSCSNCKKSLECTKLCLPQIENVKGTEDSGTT
- procedure text: yeast display SC50
Give bare numbers, in nM.

Answered cases to consult:
Return reported apparent Kd (screen); argument: Y37G (designed binder) MTLQELLREEALRRAEAEAFRYALELLAEKFPEQKEGLLDLAEEIESQIRSLSGVDVEDVRKFLDKEWAWVKELLAEHPAELAEVEAARAARLAELRAEVEAKVAA
5.31

Request: L39K (designed binder) MTLQELLREEALRRAEAEAFRYALELLAEKFPEQKEYLKDLAEEIESQIRSLSGVDVEDVRKFLDKEWAWVKELLAEHPAELAEVEAARAARLAELRAEVEAKVAA
1.16

Request: I45T (designed binder) MTLQELLREEALRRAEAEAFRYALELLAEKFPEQKEYLLDLAEETESQIRSLSGVDVEDVRKFLDKEWAWVKELLAEHPAELAEVEAARAARLAELRAEVEAKVAA
10.4

Alright, here's another binder for you.
Return reported apparent Kd (screen); argument: E33H (designed binder) MTLQELLREEALRRAEAEAFRYALELLAEKFPHQKEYLLDLAEEIESQIRSLSGVDVEDVRKFLDKEWAWVKELLAEHPAELAEVEAARAARLAELRAEVEAKVAA
0.49

Values compiled from paper PMC12416549.
